Hello, the source for this data is PubChem BioAssay (NCI), in case you need it.

# Test system: 786-0 renal
# Test: NCI tumour cell line growth inhibition, 48 h
Quantity measured: TGI

Data request: Using the record for Nc1ccc(S(=O)(=O)Nc2nccs2)cc1 , report its TGI.
Data returned: > 100 µM

Data request: What does the data say about its TGI? Entry: CSC(C1c2ccccc2N(c2ccc(C)cc2)c2[nH]c(=O)n(C)c(=O)c21)S(=O)(=O)c1ccc(C)cc1 (configuration not stated)
Data returned: > 100 µM

Data request: Recorded TGI of O=C1CSC(/C(=N/Nc2ccccc2)c2nc3ccccc3[nH]2)=N1 , please.
Data returned: 80 µM

Data request: Reported TGI for CN(CCC#N)c1ccc(/C=C(\C#N)c2ccc(Br)cc2)cc1 : what is it?
Data returned: > 100 µM

Data request: // query TGI value for entry COc1ccc2c(cnc3c4cc(OC)c(OC)cc4ccc23)c1
Data returned: > 100 µM

Data request: # query: TGI of entry O=C1Nc2ccc(F)cc2/C1=C/c1ccc[nH]1
Data returned: > 25 µM

Data request: Returns the measured TGI for the input compound. Input: Nc1ccc(-c2nc3ccc(Cc4ccc5nc(-c6ccc(N)cc6)[nH]c5c4)cc3[nH]2)cc1
Data returned: 31.6 µM

Data request: Given CC(CO)(CO)NCCCCn1ccc2c1C(=O)c1c(c(O)c3ccccc3c1O)C2=O , state its recorded TGI.
Data returned: 26.9 µM

Data request: Given COc1ccc2cc(C(C)C(=O)N3CCOC3=O)ccc2c1 (configuration not stated) , state its recorded TGI.
Data returned: > 100 µM

Data request: I am curious: what TGI value has been reported for C=CCOc1ccc(C2C(C(=O)OCC)C(=O)CC(C)(O)C2C(=O)OCC)cc1OC (configuration not stated) ?
Data returned: > 100 µM

Data request: Dear colleague, I am looking for the recorded TGI of the following compound: O=C1NC(=O)C(CC2CCCCCCCCCCC2=O)C(=O)N1 (configuration not stated)
Data returned: > 100 µM

Data request: Field request: TGI | item: O=C(CCC1OCCO1)Nc1cc(NCc2ccccc2)ccc1OCc1ccccc1
Data returned: > 100 µM
